Listed here: items and their measured growth.
# Test system: SF-268 CNS
# Experiment summary: NCI-60 one-dose screen, 48 h (100 = growth as untreated, 0 = no growth, -100 = all killed)
# Assay conditions: 10 µM unless noted
This is part of a sample that, as a whole, favours compounds with a hit. Of some 83,000 tested, about 20% had one in any assay. Activity calls are given as the source filed them. Rule for the calls: active = growth percent below 10; inactive = the rest.

Below, 2 molecules whose answers are already recorded.
Molecule | growth
CC[n+]1c(/C=C/c2ccc(N3CCCC3)cc2)cccc1/C=C/c1ccc(N2CCCC2)cc1 | -90.3% (active)
O=C(N/N=C/c1cccc(O)c1)c1ccc(C(F)(F)F)nc1Nc1cccc(C(F)(F)F)c1 | 17.6% (inactive)

**Q:** Which growth reading was recorded for the molecule CC(NNC(=S)N1CCCCCC1)c1ccc2ccccc2n1 (stereo not given) ?
**A:** 39.7% (inactive)

**Q:** Which growth reading was recorded for the molecule CCOC(=O)c1cnc2c(C)cc(C)cc2c1NCCCN(C)C ?
**A:** 35.7% (inactive)

**Q:** Which growth reading was recorded for the molecule CCc1nn2c(-c3ccc(Cl)cc3C)c(-c3cc(OC)c(OC)c(OC)c3)nc2s1 ?
**A:** 93.4% (inactive)
